# system.under.test: full length recombinant Pim-2 (Homo sapiens (Human), UniProt Q9P1W9)
# Sequence (Q9P1W9 whole entry): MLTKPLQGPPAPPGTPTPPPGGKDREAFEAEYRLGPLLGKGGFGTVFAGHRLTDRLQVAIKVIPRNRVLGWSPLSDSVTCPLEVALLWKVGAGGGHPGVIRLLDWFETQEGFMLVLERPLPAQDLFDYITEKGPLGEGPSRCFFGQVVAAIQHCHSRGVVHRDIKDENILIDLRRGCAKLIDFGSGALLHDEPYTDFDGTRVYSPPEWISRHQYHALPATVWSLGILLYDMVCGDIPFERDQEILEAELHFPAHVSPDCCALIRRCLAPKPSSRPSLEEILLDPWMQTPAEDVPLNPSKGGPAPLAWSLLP
# assay.comment: Pim enzyme assay (HTRF, phosphorylation of biotinylated-BAD (S112) peptide), Pim-2
# Assay type: biochemical
# protocol.conditions: HTRF, 10-point curve, high dose 1 uM, 45 min at RT; read-out: Pim2_IC50
measured.quantity: IC50 (µM)

1. CC(C)(C)Nc1nnc(-c2ccc3[nH]cc(-c4ncc(C(N)=O)s4)c3c2)o1 0.393
2. CC(C)Nc1nnc(-c2ccc3[nH]cc(-c4cncc(C(=O)NC5CC5)c4)c3c2)o1 0.299
3. CNC(=O)c1ccc(F)c(-c2c[nH]c3ccc(-c4nnc(NC(C)C)o4)cc23)c1 0.301

P: CC(C)Nc1nnc(-c2ccc3[nH]cc(NC(=O)C4CC4)c3c2)o1
Q: CC(C)Nc1nnc(-c2ccc3[nH]cc(-c4ncc(C(N)=O)s4)c3c2)o1
R: CC(C)Nc1nnc(-c2ccc3[nH]cc(-c4ncc(C(=O)NC5CC5)s4)c3c2)o1
Query: Rank by IC50 (largest to smallest). Reply: labels, ordered per the request.
Response: R, Q, P
(R: 0.705 µM, Q: 0.315 µM, P: 0.0256 µM)

---

# system.under.test: full length recombinant Pim-3 (Homo sapiens (Human))
# assay.comment: Pim enzyme assay (HTRF, phosphorylation of biotinylated-BAD (S112) peptide), Pim-3
# Assay type: biochemical
# protocol.conditions: Pim-3 enzyme assay; read-out: Pim3 IC50
# Source text: Pim-3 was purchased from Millipore (UK). The phosphorylation of biotinylated-BAD (S112) peptide by full length recombinant Pim-1, Pim-2, or Pim-3 protein was detected with streptavidin:Allophycocyanin (APC) conjugate and a europium (Eu) labeled antibody directed against phosphorylated-BAD (S112). […] The fluorescence is directly proportional to the amount of phosphorylated BAD peptide present in the reaction. […]
measured.quantity: IC50 (nM)

compound	measured.quantity	reported.measurement
Nc1nnc(-c2ccc3[nH]cc(-c4cc(C(=O)Nc5ccccc5)ccc4F)c3c2)s1	IC50	90.3
COC[C@@H]1CCCN1c1ccnc(-c2c[nH]c3ccc(-c4nnc(N)o4)cc23)n1	IC50	13
CN1CCN(c2cccc(-c3c[nH]c4ccc(-c5nnc(N)o5)cc34)n2)CC1	IC50	2.54
CNc1nnc(-c2ccc3[nH]cc(-c4csc(-c5ccoc5)n4)c3c2)s1	IC50	409
Nc1nnc(-c2ccc3[nH]cc(-c4cncc(N5CCOCC5)n4)c3c2)s1	IC50	4.38
CCCOc1cccc(-c2c[nH]c3ccc(-c4nnc(N)s4)cc23)n1	IC50	5.73
CS(=O)(=O)c1nnc(-c2ccc3[nH]cc(-c4cccc(N5CCOCC5)n4)c3c2)s1	IC50	168
c1cc(-c2c[nH]c3ccc(-c4nncs4)cc23)nc(N2CCOCC2)c1	IC50	27

P: CC(Nc1nnc(-c2ccc3[nH]cc(-c4cnccn4)c3c2)o1)c1ccccc1 (stereo not shown)
Q: Nc1nnc(-c2ccc3[nH]cc(-c4cncc(C(=O)N5CCOCC5)c4)c3c2)o1
R: CCOc1cccc(-c2c[nH]c3ccc(-c4nnc(N)s4)cc23)n1
S: NC(=O)c1nnc(-c2ccc3[nH]cc(-c4cccc(N5CCOCC5)n4)c3c2)s1
Query: Sort entries by IC50 from minimum to maximum value. Reply: labels, ordered per the request.
Response: R, P, S, Q

A: CNc1nnc(-c2ccc3[nH]cc(-c4cccc(N)c4)c3c2)s1
B: Nc1nnc(-c2ccc3[nH]cc(-c4nccc(N5CCC[C@@H](O)C5)n4)c3c2)o1 (stereo in doubt)
C: N[C@H]1CCN(c2nnc(-c3ccc4[nH]cc(-c5ccccc5F)c4c3)s2)C1 (stereo in doubt)
Query: Rank by IC50 (largest to smallest). Reply: labels, ordered per the request.
Response: A, C, B
(A: 158 nM, C: 13.4 nM, B: 5.1 nM)

P: Nc1nnc(-c2ccc3[nH]cc(-c4cccc(-n5cccn5)n4)c3c2)o1
Q: Nc1nnc(-c2ccc3[nH]cc(-c4cncc(-c5ccccc5Cl)n4)c3c2)o1
R: CC1CCCCN1c1cncc(-c2c[nH]c3ccc(-c4nnc(N)o4)cc23)n1 (stereo not shown)
Query: Sort entries by IC50 from minimum to maximum value. Reply: labels, ordered per the request.
Response: R, P, Q
(R: 1.06 nM, P: 4.13 nM, Q: 21.8 nM)

A: CN(C)c1cncc(-c2c[nH]c3ccc(-c4nnc(N)s4)cc23)n1
B: Nc1nnc(-c2ccc3[nH]cc(-c4cncc(NCC5CC5)n4)c3c2)o1
C: CNc1nnc(-c2ccc3[nH]cc(-c4ccccc4F)c3c2)s1
D: CC1CCCCN1c1cncc(-c2c[nH]c3ccc(-c4nnc(N)s4)cc23)n1 (stereo not shown)
Query: Sort entries by IC50 from minimum to maximum value. Reply: labels, ordered per the request.
Response: B, D, A, C
(B: 0.668 nM, D: 1.7 nM, A: 3.86 nM, C: 62.8 nM)
